- Test system: goosegrass (Eleusine indica)
- ASSAY TEXT: Test A1 preemergence, goosegrass
- Type: in vivo
- ASSAY CONTEXT: 31 g ai/ha, 0 to 100 scale (0 no effect, 100 complete control)
- Text: […]
VALUE TYPE: Plant response rating, Goosegrass
Answer field: number only, no words.

| COMPOUND | Plant response rating, Goosegrass |
| --- | --- |
| CCc1cc(C)c(NS(=O)(=O)C(F)(F)F)cc1C1=NOC2CCCC12 (centres unmarked) [Compound 305] | 90 |
| Cc1cc(C)c(N(COC(=O)C(C)(C)C)S(=O)(=O)C(F)(F)F)cc1C(=O)N1CCOCC1 [Compound 362] | 90 |
| Cc1cc(C)c(N2Cc3cccc(C)c3C2=O)cc1NS(=O)(=O)Cl [Compound 408] | 100 |
| CCC1ON=C(c2cc(N(C(=O)OCC(C)C)S(=O)(=O)C(F)(F)F)c(C)cc2C)C1CC (centres unmarked) [Compound 348] | 30 |

Then there is this compound:
INPUT: # return recorded Plant response rating, Goosegrass for input Cc1cc(C)c(C2=NOC3(C)CCCC23)cc1NS(=O)(=O)C(F)(F)F (centres unmarked) [Compound 340]
OUTPUT: 100

====

- System: Foxtail, Giant (giant foxtail, Setaria faberi)
- ASSAY TEXT: Test A preemergence, Foxtail, Giant
- Format: in vivo
- ASSAY CONTEXT: Preemergence, 500 g ai/ha; 0 to 100 scale (0 no effect, 100 complete control)
VALUE TYPE: Plant response rating, Foxtail, Giant

Some molecules with known Plant response rating, Foxtail, Giant results, for comparison:
| MOLECULE | Plant response rating, Foxtail, Giant |
| --- | --- |
| Cc1cc(C)c(N(S(=O)(=O)C(F)(F)F)S(=O)(=O)C(F)(F)F)cc1C1=NOC2(CCCCC2)C1 [Compound 198] | 100 |
| Cc1cc(C)c(-c2cc(Cl)nn(C)c2=O)cc1NS(=O)(=O)C(F)(F)F [Compound 72] | 100 |
| Cc1cc(C)c(N(S(=O)(=O)C(F)(F)F)S(=O)(=O)C(F)(F)F)cc1-c1cc(Br)nn(C)c1=O [Compound 67] | 100 |
| Cc1cc(F)c(C(=O)N(C)C)cc1N(S(=O)(=O)C(F)(F)F)S(=O)(=O)C(F)(F)F [Compound 216] | 90 |
| COc1cc(-c2cc(N(S(=O)(=O)C(F)(F)F)S(=O)(=O)C(F)(F)F)c(C)cc2C)c(=O)n(C)n1 [Compound 35] | 90 |
| Cc1cc(C)c(-c2ccnn(CC(C)C)c2=O)cc1NS(=O)(=O)C(F)(F)F [Compound 77] | 100 |
| COc1cnn(-c2cc(NS(=O)(=O)C(F)(F)F)c(C)cc2C)c(=O)c1 [Compound 54] | 10 |

Then there is this molecule:
INPUT: # return recorded Plant response rating, Foxtail, Giant for input COc1ccnn(-c2cc(NS(=O)(=O)C(F)(F)F)c(C)cc2C)c1=O [Compound 60]
OUTPUT: 90

====

Overview of recorded Plant response rating, Wheat for various compounds
- Tested on: wheat (Triticum aestivum)
- ASSAY TEXT: Test A1 postemergence, wheat
- Format: in vivo
- ASSAY CONTEXT: Postemergence, 125 g ai/ha; 0 to 100 scale (0 no effect, 100 complete control); 10 days
Answer field: number only, no words.

| COMPOUND | Plant response rating, Wheat |
| --- | --- |
| CCOc1cccc2c1C(=O)N(c1cc(N(COC(=O)C(C)(C)C)S(=O)(=O)Cl)c(C)cc1C)C2 | 0 |
| Cc1cc(C)c(N(COC(=O)C(C)(C)C)S(=O)(=O)C(F)(F)F)cc1N1CCC2(CCC(F)(F)CC2)C1=O | 60 |
| Cc1cc(C)c(N2CC3(CCCCC3)CC2=O)cc1NS(=O)(=O)C(F)(F)F | 30 |

Then there is this compound:
INPUT: # return recorded Plant response rating, Wheat for input COC1CCC2(CC1)CCN(c1cc(NS(=O)(=O)C(F)(F)F)c(C)cc1C)C2=O (stereo not shown)
OUTPUT: 70
